Target: furin, P09958;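 note: purified furin at 1:10 enzyme:substrate in 50 mM HEPES pH 7.5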
Sequence (P09958 whole entry): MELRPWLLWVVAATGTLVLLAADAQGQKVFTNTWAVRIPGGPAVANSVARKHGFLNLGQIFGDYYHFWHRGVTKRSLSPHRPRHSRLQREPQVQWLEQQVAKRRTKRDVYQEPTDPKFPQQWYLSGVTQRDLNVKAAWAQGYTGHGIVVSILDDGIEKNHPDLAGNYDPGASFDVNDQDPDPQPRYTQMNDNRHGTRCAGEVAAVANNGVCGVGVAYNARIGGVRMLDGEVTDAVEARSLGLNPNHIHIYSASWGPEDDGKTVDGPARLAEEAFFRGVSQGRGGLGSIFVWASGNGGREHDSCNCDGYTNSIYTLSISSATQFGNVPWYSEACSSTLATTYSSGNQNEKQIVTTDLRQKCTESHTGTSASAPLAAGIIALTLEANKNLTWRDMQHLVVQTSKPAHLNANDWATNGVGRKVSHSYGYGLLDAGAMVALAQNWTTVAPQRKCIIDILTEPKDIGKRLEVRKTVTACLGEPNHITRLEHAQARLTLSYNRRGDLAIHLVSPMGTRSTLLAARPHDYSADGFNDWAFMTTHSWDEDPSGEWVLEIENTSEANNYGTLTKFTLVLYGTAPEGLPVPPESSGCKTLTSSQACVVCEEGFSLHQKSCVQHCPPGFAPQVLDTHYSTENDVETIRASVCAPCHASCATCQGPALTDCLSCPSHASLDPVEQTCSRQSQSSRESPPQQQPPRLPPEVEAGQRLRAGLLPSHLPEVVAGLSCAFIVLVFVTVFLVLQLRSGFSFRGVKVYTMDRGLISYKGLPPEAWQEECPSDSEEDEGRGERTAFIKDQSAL
Test: furin cleavage Z-score vs untreated control; higher = more cleavage, active = 3.5 or more, inactive = 1 or less, 8 variable residues between constant flanks
Settings: 7.5 min
Some of the results follow. How many sequences the whole screen found active is unknown.
observable: furin cleavage Z-score
Keep it simple and answer with nothing but the number.

sequence CARQRRALERAGNASASA [FS-2510] , furin cleavage Z-score observed: 7.27

sequence CAITARYHRDAGNASASA [FS-805] , furin cleavage Z-score observed: 2.27

sequence CARQRRDLLNAGNASASA [FS-2173] , furin cleavage Z-score observed: 6.3

sequence CARQKKAAEKAGNASASA [FS-2584] , furin cleavage Z-score observed: -1.07

sequence CAEVPCHRPFAGNASASA [HC2407] , furin cleavage Z-score observed: -0.191

sequence CAPPGDPPQPAGNASASA [HC1545] , furin cleavage Z-score observed: 0.491

sequence CAIVARNHRDAGNASASA [FS-1537] , furin cleavage Z-score observed: 4.29
